target_or_test_system: prostatic monkey 5α-reductase (Macaca fascicularis)
Construct: microsomes were isolated from cynomolgus monkey prostate tissue
Sequence (Q28892 whole entry): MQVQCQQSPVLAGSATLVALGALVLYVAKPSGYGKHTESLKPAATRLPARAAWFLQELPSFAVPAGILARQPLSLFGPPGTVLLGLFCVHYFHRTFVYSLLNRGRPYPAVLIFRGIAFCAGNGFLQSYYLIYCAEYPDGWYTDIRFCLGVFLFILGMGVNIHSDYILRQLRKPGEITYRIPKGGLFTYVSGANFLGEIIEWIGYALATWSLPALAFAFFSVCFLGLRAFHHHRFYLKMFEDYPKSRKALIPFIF
experiment_summary: inhibition of cynomolgus monkey prostatic 5α-reductase (microsomes)
metric: IC50 (nM)

* C[C@H](CO)[C@H]1CC[C@H]2[C@@H]3CCC4=C([N+](=O)[O-])C(=O)CC[C@]4(C)[C@H]3CC[C@]12C | 17

---

target_or_test_system: rat testicular C17-20 lyase (Rattus norvegicus, UniProt P11715)
Sequence (P11715 1-507): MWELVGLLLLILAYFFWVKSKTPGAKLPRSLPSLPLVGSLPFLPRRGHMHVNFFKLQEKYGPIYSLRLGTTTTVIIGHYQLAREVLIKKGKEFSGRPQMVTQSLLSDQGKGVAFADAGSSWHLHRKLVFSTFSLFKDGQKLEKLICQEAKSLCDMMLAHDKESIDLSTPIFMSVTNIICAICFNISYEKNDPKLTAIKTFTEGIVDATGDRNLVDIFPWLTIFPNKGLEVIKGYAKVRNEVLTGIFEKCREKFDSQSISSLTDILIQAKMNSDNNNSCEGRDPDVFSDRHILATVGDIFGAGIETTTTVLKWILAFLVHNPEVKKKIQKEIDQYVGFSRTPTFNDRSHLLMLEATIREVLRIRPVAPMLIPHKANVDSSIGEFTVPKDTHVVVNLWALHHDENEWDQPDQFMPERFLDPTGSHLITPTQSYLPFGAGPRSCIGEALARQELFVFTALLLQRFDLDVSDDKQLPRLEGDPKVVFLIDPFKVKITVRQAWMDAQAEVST
pIC50: −log10 of the molar value.
metric: pIC50

- C[C@H](CO)[C@H]1CC[C@H]2[C@@H]3CCC4=C([N+](=O)[O-])C(=O)CC[C@]4(C)[C@H]3CC[C@]12C: 7.07
